# TARGET: Protein-tyrosine kinase 6 (Homo sapiens)
# METHOD_DESCRIPTION: Inhibition of Brk at 10 uM by HTRF assay relative to control
RESULT_TYPE: inhibition (%)

Past entries and their recorded results:
>>> reading("Cc1cccc(N(C)c2cc(N3CCN(C(=O)Cc4c[nH]c5ccccc45)CC3)ncn2)c1")
16
>>> reading("COc1cccc(Nc2cc(Nc3cccc(C(=O)NCCCn4ccnc4)c3)nc(N)n2)c1")
16
>>> reading("CN(C)CC(C)(C)CNC(=O)c1cccc(Nc2nccc(Nc3ccc4ncsc4c3)n2)c1")
97

1. Nc1nc(N2CCOCC2)cc(N2CCC(C(=O)NCCc3ccc(O)cc3)CC2)n1
2. Cc1cccc(N(C)c2cc(Nc3cccc(C(=O)NCCCn4ccnc4)c3)ncn2)c1
3. O=C(C1CCN(c2nccc(Nc3ccccc3)n2)CC1)N1CC[C@@H](O)C1
input: Could you please order the items by inhibition, going from the lowest number to the highest? When ranking, write the labels in the order the request describes.
output: 1, 3, 2
(1: 0%, 3: 4%, 2: 12%)

A. O=C(CN1CCN(c2ncnc3c2CN(Cc2ccccc2)CC3)CC1)Nc1cc(F)ccc1F
B. O=C(NCc1cccnc1)c1cccc(-c2ccc(Nc3ccc4ncsc4c3)nn2)c1
input: Could you tell me which of these two has the smaller inhibition figure? First: A Second: B Please reply using the label of the selected record.
output: A

I. CC(=O)N1CCN(C(=O)c2cccc(Nc3cc(N(C)c4cccc(C)c4)ncn3)c2)CC1
II. CN(C)c1ccc(C(=O)N2CCN(c3ncnc4c3CN(Cc3ccccc3)CC4)CC2)c2ccccc12
input: When I and II are compared, which has the higher number for inhibition? Write down the label of the entry you select.
output: I
(I: 1%, II: 0%)

P. Nc1nc(Nc2ccc3ncsc3c2)cc(N2CCC[C@H]2C(=O)N[C@@H](CO)c2ccccc2)n1
Q. COC(=O)C(CO)NC(=O)[C@@H]1CCCN1c1nccc(Oc2cccc(C)c2)n1 (stereo not given in full)
R. Nc1nc(Nc2ccc3ncsc3c2)cc(N2CCC[C@H]2C(=O)NCCc2cccc(I)c2)n1
S. Cc1cccc(Nc2cc(Nc3cccc(C(=O)N(CC(C)O)CC(C)O)c3)ncn2)c1 (stereo not given)
input: Let's sort these by inhibition, smallest first. Go ahead? Order the labels as requested and give them as your answer.
output: R, P, Q, S

I. CN(C)CC(C)(C)CNC(=O)[C@@H]1CCCN1c1nccc(Nc2ccccc2)n1
II. Cc1cccc(Oc2ccnc(N3CCN(CC(=O)Nc4cccc5c4CCCC5)CC3)n2)c1
input: Between the two listed entries I and II , which has its inhibition at the higher number? State your choice using its label.
output: I
(I: 4%, II: 0%)

P. Cc1cccc(N(C)c2cc(Nc3cccc(C(=O)NCc4ccc(N(C)C)cc4)c3)ncn2)c1
Q. Cc1ccc(CN2CCN(c3nccc(C(C#N)c4ccccn4)n3)CC2)cc1 (stereo not given)
input: Please compare: P and Q . Report which one has the smaller inhibition value. # reply format: chosen label
output: Q

P. Cc1cccc(N(C)c2cc(Nc3cccc(C(=O)N(CC(C)C)CC(C)C)c3)ncn2)c1
Q. Cc1cccc(Oc2ccnc(N3CCC[C@H]3C(=O)NCc3cccnc3)n2)c1
R. Cc1cccc(Nc2nccc3c2CN(C(=O)c2cc(C)n(C)c2C)CC3)c1
S. CN(CCCn1ccnc1)C(=O)[C@@H]1CCCN1c1nccc(Nc2ccccc2)n1
T. O=C(COc1ccccc1)N1CCN(c2nccc(Nc3ccc4ncsc4c3)n2)CC1
input: rank_up(items): orders items by reported inhibition in ascending numerical order. I'd appreciate it if you listed the labels in the requested order.
output: Q, S, P, R, T
(Q: 0%, S: 4%, P: 7%, R: 13%, T: 54%)

A. CN(CCc1ccccn1)C(=O)[C@@H]1CCCN1c1nccc(Nc2ccccc2)n1
B. Nc1nc(Nc2ccccc2)cc(N2CCC(C(=O)NCCc3ccccn3)CC2)n1
C. COc1cccc(Nc2cc(N3CCC[C@H]3C(=O)NCCN3CCCCC3)nc(N)n2)c1
D. COc1cccc(Nc2cc(Nc3cccc(C(=O)N(C)CCc4ccccn4)c3)nc(N)n2)c1
E. Clc1ccc2sc(CN3CCN(c4ncnc5c4CN(Cc4ccccc4)CC5)CC3)cc2c1
input: Thanks in advance: please rank these 5 entries by inhibition, highest to lowest. Submit the labels in the order that the ranking request calls for.
output: D, B, C, E, A
(D: 21%, B: 10%, C: 7%, E: 2%, A: 0%)

1. Nc1nc(N2CCOCC2)cc(N2CCC(C(=O)NCc3cccs3)CC2)n1
2. O=C(NCc1ccncc1)c1cccc(Nc2cc(Nc3cccc(Br)c3)ncn2)c1
input: Short answer wanted: higher inhibition, 1 or 2 ? Write down the label of the entry you select.
output: 1
(1: 15%, 2: 10%)
